molecular target: Rho-associated protein kinase 1 (Homo sapiens); details: at 1 µM
Reported residual activity values for a set of compounds
// units = %; emit number, no label

SMI	TARGET_UNDER_TEST	REPORTED_RESULT
CCCC(=O)Oc1ccc2[nH]c(C(=O)c3cc4ccccc4[nH]3)cc2c1	Rho-associated protein kinase 1 (Homo sapiens)	103

From here, focus on the item given below.
Q) Missing value: residual activity, Rho-associated protein kinase 1 (Homo sapiens), entry `CC(C)(C)n1nc(Cc2cccc3ccccc23)c2c(N)ncnc21` . Fill in?
A) 114

----------
biological target: Platelet-derived growth factor receptor beta (Homo sapiens) (UniProt P09619); settings: at 10 µM
Sequence (P09619 whole entry): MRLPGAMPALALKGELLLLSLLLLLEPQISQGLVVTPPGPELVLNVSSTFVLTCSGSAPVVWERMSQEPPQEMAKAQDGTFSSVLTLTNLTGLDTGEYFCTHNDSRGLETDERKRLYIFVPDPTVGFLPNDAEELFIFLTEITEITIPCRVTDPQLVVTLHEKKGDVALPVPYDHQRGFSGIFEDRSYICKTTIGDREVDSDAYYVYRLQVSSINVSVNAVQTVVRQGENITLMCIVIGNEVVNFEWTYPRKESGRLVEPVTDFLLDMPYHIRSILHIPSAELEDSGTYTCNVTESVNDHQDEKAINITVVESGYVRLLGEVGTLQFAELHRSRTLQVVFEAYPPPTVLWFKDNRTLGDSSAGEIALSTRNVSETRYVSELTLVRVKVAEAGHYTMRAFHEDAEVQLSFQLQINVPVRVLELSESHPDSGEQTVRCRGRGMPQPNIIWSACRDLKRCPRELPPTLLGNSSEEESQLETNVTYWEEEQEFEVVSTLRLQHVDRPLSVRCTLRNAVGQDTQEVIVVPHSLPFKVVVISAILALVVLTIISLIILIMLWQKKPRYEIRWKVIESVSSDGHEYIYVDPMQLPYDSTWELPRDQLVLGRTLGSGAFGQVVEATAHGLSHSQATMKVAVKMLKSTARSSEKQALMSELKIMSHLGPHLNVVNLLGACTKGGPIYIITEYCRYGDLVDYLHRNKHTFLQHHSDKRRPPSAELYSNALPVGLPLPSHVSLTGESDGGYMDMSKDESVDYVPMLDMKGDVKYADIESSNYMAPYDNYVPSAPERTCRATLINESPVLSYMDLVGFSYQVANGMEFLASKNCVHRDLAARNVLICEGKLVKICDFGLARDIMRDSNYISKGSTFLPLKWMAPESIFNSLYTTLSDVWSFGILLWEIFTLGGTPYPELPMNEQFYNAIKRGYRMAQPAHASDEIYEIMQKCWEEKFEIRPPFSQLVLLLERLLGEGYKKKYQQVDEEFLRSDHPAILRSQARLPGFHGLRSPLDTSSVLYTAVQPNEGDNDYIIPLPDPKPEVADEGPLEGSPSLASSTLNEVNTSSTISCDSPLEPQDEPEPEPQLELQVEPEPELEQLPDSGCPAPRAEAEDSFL
Reported residual activity values for a set of molecules
// units = %; emit number, no label

SMI	REPORTED_RESULT
CCCCc1c(-c2ccc(OC)cc2)[nH]c2nccnc12	105

Q) I would be grateful if you could share the reported residual activity for `O=C(CCCc1ccc(-c2ccccc2F)cc1)Nc1ccc(O)cc1` .
A) 125

Q) Please answer likewise for `O=C(c1cc2cc(O)ccc2[nH]1)c1cc2cc(O)ccc2[nH]1`
A) 6

Q) Please answer likewise for `O=C(Nc1nc2ccccc2n1CCN1CCOCC1)c1cccc([N+](=O)[O-])c1`
A) 81

Data provenance: ChEMBL document CHEMBL2218924
